The reported measurements were obtained from PubChem BioAssay.

Property: GLP1 secretion stimulation; scope: individual compounds
- Test method notes: GLP1 release stimulators, primary, NCI-H716, NPC library (AID 1117341); also: reference of the scale not given here
- Experimental parameters: NCI-H716 cells, at 10 µM, hits give high values
Dear colleague, please return just the value in %, with no unit written.

{"Compound": "C=C1c2cccc(O)c2C(O)=C2C(=O)[C@]3(O)C(O)=C(C(N)=O)C(=O)[C@@H](N(C)C)[C@@H]3[C@@H](O)[C@H]12", "Measurement unit": "%", "GLP1 secretion stimulation": 0.4}
{"Compound": "CCCCc1ccc2nc(NC(=O)OC)[nH]c2c1", "Measurement unit": "%", "GLP1 secretion stimulation": -5.4}

QUERY: Given COc1ccc(CN(CCN(C)C)c2ncccn2)cc1 , state its recorded GLP1 secretion stimulation.
RESULT: 4.9

QUERY: Reported GLP1 secretion stimulation, compound CN1CCC(OC(c2ccccc2)c2ccccc2)CC1 : ____
RESULT: 4.2

QUERY: Suppose we examine the compound CC(C)NCC(O)c1ccc2ccccc2c1 (configuration not stated) ; what GLP1 secretion stimulation value has been reported?
RESULT: 1.5

QUERY: Quick one: GLP1 secretion stimulation for CNS(=O)(=O)Cc1ccc2[nH]cc(CCN(C)C)c2c1 ?
RESULT: 1.4
